assay: Solubility in water; type: physicochemical
Quantity Measured: solubility

Asked: Tell me the measured solubility of Cc1cccc2c1c(Cc1ccc(OCCCN3CCCC4(CCN(C(=O)CNC(=O)NCC(C)C)CC4)C3)cc1)cn2C1O[C@H](CO)[C@@H](O)[C@H](O)[C@H]1O (stereo partly shown) [compound represented by formula (II)] , please.
Given back: < 2300 µg/mL
